Biological target: T1, huNABA-avi-his (hybrid protein N-A1-B3-A2: N and A1 domains of human BGP, B3 domain of human CEA, A2 domain … (human, biotinylated at the avi tag (in vivo, co-transfected biotin ligase)))
T1 construct: also called NABA-avi-his reagent; biotinylated NABA
T1 chain: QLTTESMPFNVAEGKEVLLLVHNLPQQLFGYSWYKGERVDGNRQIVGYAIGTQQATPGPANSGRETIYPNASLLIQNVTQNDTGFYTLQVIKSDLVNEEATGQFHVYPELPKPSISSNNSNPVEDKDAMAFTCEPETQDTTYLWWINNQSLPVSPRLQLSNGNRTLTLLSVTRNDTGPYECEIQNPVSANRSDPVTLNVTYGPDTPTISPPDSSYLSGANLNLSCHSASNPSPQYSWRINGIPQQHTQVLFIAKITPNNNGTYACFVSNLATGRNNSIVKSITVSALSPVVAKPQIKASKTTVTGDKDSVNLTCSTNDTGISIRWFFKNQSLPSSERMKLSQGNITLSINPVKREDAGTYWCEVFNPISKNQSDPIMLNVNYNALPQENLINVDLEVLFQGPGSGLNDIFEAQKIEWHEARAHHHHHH
Assay: Biacore, Fab on immobilized NABA-avi-his; column Monovalent Affinity
Experimental endpoint: koff (s⁻¹)
Supply the numeric figure in s⁻¹, leaving out any unit text.

input: Note down koff recorded for anti-CEA Fab with affinity matured heavy chain CH7A H4E9 and unmatured light chain CL1A (Fab, V domains shown, Fab format, bacterially expressed; also called CH7A H4E9 + CL1A) VH: QVQLVQSGSELKKPGASVKVSCKASGYTFTEFGMNWVRQAPGQGLEWMGWINTKTGEATYIEEFKGRFVFSLDTSVSTAYLQISSLKAEDTAVYYCARWDFYDYVEAMDYWGQGTTVTVSS VL: DIQMTQSPSSLSASVGDRVTITCKASQNVGTNVAWYQQKPGKAPKLLIYSASYRYSGVPSRFSGSGSGTDFTLTISSLQPEDFATYYCHQYYTYPLFTFGQGTKLEIK
output: 0.0021

input: Using the record for 1C8 x 2F1 (Fab, V domains shown, also called 1C8 x 2F1 hc/lc, monovalent; copies: 1 + 1) VH: QVQLVQSGSELKKPGASVKVSCKASGYTFTEFGMNWVRQAPGQGLEWMGWINTKTGEATYVEEFKGRFVFSLDTSVSTAYLQISSLKAEDTAVYYCARWDFYHYVEAMDYWGQGTTVTVSS VL: DIQMTQSPSSLSASVGDRVTITCKASAAVGTYVAWYQQKPGKAPKLLIYSASYRKRGVPSRFSGSGSGTDFTLTISSLQPEDFATYYCHQYYTYPLFTFGQGTKLEIK , state its measured koff.
output: 0.0087

input: Please supply the value of reported koff for the item H3 Full (5) 19 (Fab, V domains shown) VH: QVQLVQSGSELKKPGASVKVSCKASGYTFTEFGMSWVRQAPGQGLEWMGWINTKTGEATYVEEFKGRFVFSLDTSVSTAYLQISSLKAEDTAVYYCARWDAFEYVKALDYWGQGTTVTVSS VL: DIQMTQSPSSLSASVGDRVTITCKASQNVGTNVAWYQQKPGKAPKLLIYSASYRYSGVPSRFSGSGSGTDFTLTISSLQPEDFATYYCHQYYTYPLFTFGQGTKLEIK
output: 0.0013

From: patent US20230365711A1
